Hi there, I'd appreciate the recorded self-cleavage kobs at 2500 uM GlcN6P for every entry that follows.
B1: glmS ribozyme (parent)
chain: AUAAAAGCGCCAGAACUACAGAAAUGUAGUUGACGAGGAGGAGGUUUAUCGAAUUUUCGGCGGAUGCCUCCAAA

Variants of: B1
method.description: self-cleavage kobs at 2500 uM GlcN6P; higher = faster cleavage; RNA array
test.parameters: with glucosamine-6-phosphate
This sample holds only a part of the variants without activity.
Answers are plain numbers, in s⁻¹.

Batch request: self-cleavage kobs at 2500 uM GlcN6P per item, same order as input.
1. AUAAAAGCGCCAGAACUACAGAAAUGUAAUUGACGAGGAGGAGGUUUAUCGAAUGUUCGGCGGAUGCCUCCAAA [G29A U55G]
2. AUAAAAGCGCCAGAACUACAGAAAUGUAGUUGACGAGGAGGAGGUUUAUCGAAUUUUCGGCGGAGGGGUCCAAA [U65G C67G C68G]
3. AUAAAAGCGCUAGAACUACAGAAAUGUAGUUGACGAGGAGGAGGUUUAUCGAAUAUUCGGCGGAUGCCUCCAAA [C11U U55A]
4. AUAAAAGCGCCAGAAUUACAGAAAUGUAGUUGACGAGGAGGAGGUUUAUCGAAUUGUCGGCGGAUGCCUCCAAA [C16U U56G]

Return:
[0.000622, "3.55e-05", 0.000891, 0.00709]

Values were extracted from the supplement of paper PMC7125110.
